Listed here are sequences together with their documented self-aminoacylation.
Tested on: biotinyl-Phe-oxazolone
measurement_description: self-aminoacylation, catalytic enhancement (BFO) (fold over background); higher = more active; k-Seq, kA / k0A0; sequences stand for … in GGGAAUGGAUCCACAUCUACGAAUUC…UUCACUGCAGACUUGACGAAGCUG
Variants at the floor of the assay were thinned out.
measured_property: self-aminoacylation

> print(dat)
                            sequence.content    measured.property  result
 1  AAGUUUGCUAAAAGUCACAAG [Fam3.1 aminoacylation ribozyme variant]  self-aminoacylation    3.25
 2  CUACUUUAAACGAUCGGUCUG [Fam1A.1 aminoacylation ribozyme variant]  self-aminoacylation   0.589
 3  AAGUUUGCUAACAGUCGCACG [Fam3.1 aminoacylation ribozyme variant]  self-aminoacylation    1.65
 4  AUUCACCUACGUGAUCGGGUG [Fam2.2 aminoacylation ribozyme variant]  self-aminoacylation    20.2
 5  AUUGCCCUGGUCAACGAGUGA [Fam2.1 aminoacylation ribozyme variant]  self-aminoacylation    49.1
 6  AAGUUUGCGAAUCGUCGCAAG [Fam3.1 aminoacylation ribozyme variant]  self-aminoacylation    1.79
 7  GUUAACCUGGUCAUCGAGUGA [Fam2.1 aminoacylation ribozyme variant]  self-aminoacylation    24.2
 8  AUUCACCUAUGGCAUCGGGUG [Fam2.2 aminoacylation ribozyme variant]  self-aminoacylation    11.9
 9  AAGUUCGCUAAUCGUCGCAAG [Fam3.1 aminoacylation ribozyme variant]  self-aminoacylation    6.17
10  CGACACUUCAAGCAAUCGUUC [Fam1B.1 aminoacylation ribozyme variant]  self-aminoacylation       1
11  AUUACCCUGGUCAUCAAGCGA [Fam2.1 aminoacylation ribozyme variant]  self-aminoacylation    0.84
12  AAGUUUGCUAGUAGUCGCAUG [Fam3.1 aminoacylation ribozyme variant]  self-aminoacylation   0.822
13  CUAUUUCAAACAAUCGGCCUG [Fam1A.1 aminoacylation ribozyme variant]  self-aminoacylation    6.32
14  AUUAUCCUGGUCAGCGAGUGA [Fam2.1 aminoacylation ribozyme variant]  self-aminoacylation    17.7
15  AUUACCCUGGUCUUGGAGUGA [Fam2.1 aminoacylation ribozyme variant]  self-aminoacylation    5.63
16  CGAAACUUCAAGCAAUCGGUC [Fam1B.1 aminoacylation ribozyme variant]  self-aminoacylation    7.94
17  CCUCACUUCAAGCAGUCGGUC [Fam1B.1 aminoacylation ribozyme variant]  self-aminoacylation     1.1
18  CCGCACUCCAAGCAAUCGGUC [Fam1B.1 aminoacylation ribozyme variant]  self-aminoacylation    6.39
